# TEST DETAILS: Cytotoxicity against human HepG2(2.2.15) cells
# Type: cell-based
READOUT KIND: CC50
Give me the value, and tack the unit on after it.

Measured CC50, CC(C)=CCC[C@H](C)c1cc([N+](=O)[O-])c(C)cc1O : 39 µg/mL
